# TARGET_DESC: NEK11 (human)
# ASSAY_NAME: KINOMEscan competition binding
# CONDITION_SUMMARY: compound 10.0 µM
For each record, write down the corresponding kinase still bound, per cent of control.
Write the answer as a number in %, unit excluded.

Query COc1cc2ncnc(Nc3cccc(Cl)c3)c2cc1OC yields kinase still bound, per cent of control of 99

Data point: CCc1nc(-c2cccc(C)c2)c(-c2ccnc(NC(=O)c3ccccc3)c2)s1 ; kinase still bound, per cent of control = 100

Per the records, this molecule ( CCN1CCN(Cc2ccc(NC(=O)c3ccc(C)c(/C=C/c4cnc5[nH]ccc5c4OC)c3)cc2C(F)(F)F)CC1 ) has kinase still bound, per cent of control equal to 32

The molecule listed as O=c1[nH]c2ccccc2n1C1CCN(Cc2ccc(-c3nc4cc5[nH]cnc5cc4nc3-c3ccccc3)cc2)CC1 has a reported kinase still bound, per cent of control of 100

For this molecule ( CNC(=O)Nc1ccc(-c2nc(N3CC4CCC(C3)O4)c3cnn(C4CCC5(CC4)OCCO5)c3n2)cc1 ), measured kinase still bound, per cent of control is 99

Documented kinase still bound, per cent of control of N#C/C(=C1/Nc2ccccc2S1)c1ccnc(NCCc2cccnc2)n1 : 100

kinase still bound, per cent of control in this record for CCN(CCO)CCCOc1ccc2c(Nc3cc(CC(=O)Nc4cccc(F)c4)[nH]n3)ncnc2c1 : 98

Consider CC(=O)c1c(C)c2cnc(Nc3ccc(N4CCNCC4)cn3)nc2n(C2CCCC2)c1=O . Its measured kinase still bound, per cent of control is 31

// recorded kinase still bound, per cent of control for CC1=C(C(=O)Nc2cc3cn[nH]c3cc2F)C(c2ccc(C(F)(F)F)cc2)CC(=O)N1 (configuration not stated) : 100

Documented kinase still bound, per cent of control of COc1cc2c(Nc3ccc(NC(=O)c4ccccc4)cc3)ncnc2cc1OCCCN1CCOCC1 : 100

kinase still bound, per cent of control recorded for this molecule, C=CC(=O)Nc1ccc(C(=O)c2sc(Nc3ccc(N4CCN(C)CC4)cc3OC)nc2N)cc1 , is 68

For this molecule ( N#Cc1cc(-c2ccnc(Nc3ccc(-n4cnc(-c5cccnc5)n4)cc3)n2)cc(N2CCOCC2)c1 ), measured kinase still bound, per cent of control is 100

Sourced from the kinase profiling compilation of Christmann-Franck et al. (2016)
